Recorded values, source patent US10556900B2.

target: human TrkA receptor (Homo sapiens (Human), UniProt P04629); assay: TrkA functional activity, DiscoverX PathHunter assay (NGF-stimulated U2OS cells); conditions: U2OS cells expressing human TrkA-Prolink, Shc1-EA and p75NTR; compound 1 h, then NGF (~80% of maximal response) 3 h; luminescence
Sequence (P04629 33-796): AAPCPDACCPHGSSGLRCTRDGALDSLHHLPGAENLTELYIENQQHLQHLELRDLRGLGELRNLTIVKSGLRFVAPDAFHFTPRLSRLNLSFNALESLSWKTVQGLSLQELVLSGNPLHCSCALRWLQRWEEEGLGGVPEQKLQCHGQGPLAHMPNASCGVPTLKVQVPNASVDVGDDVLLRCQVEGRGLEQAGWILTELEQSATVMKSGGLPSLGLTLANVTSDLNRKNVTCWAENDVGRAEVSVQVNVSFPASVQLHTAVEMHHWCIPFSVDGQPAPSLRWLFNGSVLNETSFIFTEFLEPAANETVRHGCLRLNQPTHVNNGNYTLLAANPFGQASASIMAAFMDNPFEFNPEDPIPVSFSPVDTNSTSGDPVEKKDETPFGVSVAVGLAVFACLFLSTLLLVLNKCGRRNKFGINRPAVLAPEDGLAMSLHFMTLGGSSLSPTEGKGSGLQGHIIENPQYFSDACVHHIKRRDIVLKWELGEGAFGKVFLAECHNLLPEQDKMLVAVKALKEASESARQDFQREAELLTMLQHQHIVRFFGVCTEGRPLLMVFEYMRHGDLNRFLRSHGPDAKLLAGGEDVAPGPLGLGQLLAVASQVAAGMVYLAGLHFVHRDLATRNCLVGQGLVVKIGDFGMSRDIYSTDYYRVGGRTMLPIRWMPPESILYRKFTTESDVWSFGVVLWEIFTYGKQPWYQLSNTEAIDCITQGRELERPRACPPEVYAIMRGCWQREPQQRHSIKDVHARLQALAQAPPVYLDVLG
ASSAY_ENDPOINT: IC50 (nM)
Your answer should be a plain number; it is taken to be in nM.

Examples with their reported IC50 follow.
>  <COMPOUND>
O=C(Nc1c(-c2ccccc2)ccn2c(CO)cnc12)c1cc(-c2ncccn2)c(C(F)(F)F)cc1F

>  <QUANTITY_UNIT>
nM

>  <ASSAY_VALUE>
6.2

$$$$
>  <COMPOUND>
CC(O)c1cnc2c(NC(=O)c3cc(-c4ccccn4)c(C(F)(F)F)cc3F)c(-c3ccccc3)ccn12 (single isomer, unassigned) [Compound 30]

>  <QUANTITY_UNIT>
nM

>  <ASSAY_VALUE>
0.74

$$$$

Value of measured IC50 for the entry CC(O)c1cnc2c(NC(=O)c3cc(-c4ncccn4)c(C(F)(F)F)cc3F)c(-c3ccc(F)cc3)ccn12 (single isomer, unassigned) [Compound 52] : 4.9

----------
target: human TrkA receptor (Homo sapiens (Human), UniProt P04629); experiment: TrkA functional activity, DiscoverX PathHunter assay (NGF-stimulated U2OS cells); settings: U2OS cells expressing human TrkA-Prolink, Shc1-EA and p75NTR; compound 1 h, then NGF (~80% of maximal response) 3 h; luminescence
The compounds listed here are annotated with their IC50.
State the value with its unit after it.

# example entries with known answers
>  <COMPOUND>
CC(O)c1n[nH]c2c(NC(=O)c3cc(-c4ncccn4)c(C(F)(F)F)cc3F)c(-c3ccccc3)ccc12 (racemic) [Compound 47]

>  <TARGET_DESC>
human TrkA receptor (Homo sapiens (Human), UniProt P04629)

>  <IC50>
4.5 nM

$$$$
>  <COMPOUND>
Cn1ccc(-c2cc(C(=O)Nc3c(-c4ccccc4)ccc4c(CO)cnn34)ccc2C(F)(F)F)n1 [Compound 40]

>  <TARGET_DESC>
human TrkA receptor (Homo sapiens (Human), UniProt P04629)

>  <IC50>
1.4 nM

$$$$

response.value for Cn1ccc(-c2cc(C(=O)Nc3c(-c4ccccc4)ccn4c(C(N)=O)cnc34)sc2C(F)(F)F)n1 [Compound 67] (field: IC50) = 56 nM

----------
# log10 IC50 values compiled below
target: UniProtKB P04629; experiment: TrkA functional activity, DiscoverX PathHunter assay (NGF-stimulated U2OS cells); details: U2OS cells expressing human TrkA-Prolink, Shc1-EA and p75NTR; compound 1 h, then NGF (~80% of maximal response) 3 h; luminescence
Hey, these are logged values: log10 of IC50, nM being the unit before logging.

>  <MOLECULE>
O=C(Nc1c(-c2ccc(F)cc2)ccn2c(CO)cnc12)c1cc(-c2ncccn2)c(C(F)(F)F)cc1F

>  <log10 IC50>
1.78

$$$$

Note: attention shifts to another entry.
Briefly, log10 IC50 measured for "Cn1ccc(-c2cc(C(=O)Nc3c(-c4ccccc4)ccn4c(C(C)(C)O)cnc34)c(Cl)cc2C(F)(F)F)n1" : 0.04

----------
This listing pairs compounds with measured pIC50.
biological target: UniProt:P04629; assay: TrkA functional activity, DiscoverX PathHunter assay (NGF-stimulated U2OS cells); settings: U2OS cells expressing human TrkA-Prolink, Shc1-EA and p75NTR; compound 1 h, then NGF (~80% of maximal response) 3 h; luminescence
In textbook form, pIC50 equals minus log to base ten of the concentration in mol/L.

The cases that follow already have their pIC50 on record.
>  <COMPOUND>
Cn1ccc(-c2cc(C(=O)Nc3c(-c4ccccc4)ccc4sc(C(C)(C)O)nc34)ccc2C(F)(F)F)n1

>  <ASSAY_VALUE>
7.17

$$$$
>  <COMPOUND>
Cn1ccc(-c2cc(C(=O)Nc3c(-c4ccccc4)ccc4c(CO)cnn34)c(F)cc2C(F)(F)F)n1

>  <ASSAY_VALUE>
9.48

$$$$

Kindly review the next compound as well.
// pIC50 value for CC(O)c1nc2c(NC(=O)c3ccc(C(F)(F)F)c(-c4ccn(C)n4)c3)c(-c3ccccc3)ccc2s1 (single isomer, unassigned) [Compound 5] : 7.89
